src = patent US20130252901A1

Can you tell me koff for the items I'm about to list?
# Assayed Target: T1, Ac-DAEFRHDSGYEVHHQKGGGGC-NH2, immobilized peptide fragment corresponding to the 1-16 region of the amyloid-β … (N-terminal acetyl (Ac); C-terminal amide (NH2); C-terminal cysteine bound to the CM5 chip through a thiol bond)
# T1 construct: Synthetic 21-mer; Aβ 1-16 plus GGGG linker and Cys for immobilisation; also called ligand; target ligand
# T1 peptide: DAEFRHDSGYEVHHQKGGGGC
# Test Name: SPR, BIACORE T100, ligand immobilised on CM5 chip, peptide as analyte 50-2,000 µM, no zinc, kinetic fit
Please state the figure in s⁻¹; there is no need to write the unit.

Record request: koff value, item Ac-RADD-NH2 (also called ID; NO) [Ac-RADD-NH2]
0.00024

Name the recorded koff for Ac-DDAK-NH2 (also called ID; NO) [Ac-DDAK-NH2] .
0.0062

What koff value was documented for this binder, Ac-HADD-NH2 (also called ID; NO) [Ac-HADD-NH2] ?
0.0104

Query: koff; subject: Ac-RAEE-NH2 (also called ID; NO; 23) [Ac-RAEE-NH2]
0.0112

Request the reported koff associated with Ac-DEAR-NH2 (also called ID; NO; 12) [Ac-DEAR-NH2]
0.00709

Look up koff for this binder: Ac-KAED-NH2 (also called ID; NO) [Ac-KAED-NH2]
0.019

What does the data say about its koff? Entry: Ac-HAEE-NH2 (also called ID; NO; 19) [Ac-HAEE-NH2]
3.5e-05

Tell me the measured koff of Ac-KADE-NH2 (also called ID; NO; 15) [Ac-KADE-NH2] , please.
0.0096
